Reported GI50 values for the following compounds.
test system: Panel NCI-60 (60 carcinoma cell lines); test: In vitro cytotoxic potency against NCI-60 human tumor cell line; assay type: functional

compound=COc1cc2oc(-c3ccccc3)cc(=O)c2c(O)c1C reported_result="> 100 µM"
compound=COc1c(C)c(O)c2c(=O)cc(-c3ccccc3)oc2c1C reported_result="> 100 µM"
compound="COc1cc(-c2oc3cc(OC)c(OC)c(O)c3c(=O)c2OC)ccc1O [CHRYSOSPLENOL B]" reported_result="> 33 µM"
compound=COc1cc2oc(-c3ccc(O)cc3)cc(=O)c2c(OC)c1OC reported_result="> 100 µM"
compound=COc1cc(OC)c2c(=O)c(OC)c(-c3ccc(OC)c(O)c3)oc2c1 reported_result="> 100 µM"

Request: // returns reported GI50 for input `COc1ccc(-c2cc(=O)c3c(O)c(O)c(OC)cc3o2)cc1O`
Result: > 100 µM
